- TARGET_UNDER_TEST: Alpha-2A adrenergic receptor (Homo sapiens)
- Sequence (P08913 whole entry): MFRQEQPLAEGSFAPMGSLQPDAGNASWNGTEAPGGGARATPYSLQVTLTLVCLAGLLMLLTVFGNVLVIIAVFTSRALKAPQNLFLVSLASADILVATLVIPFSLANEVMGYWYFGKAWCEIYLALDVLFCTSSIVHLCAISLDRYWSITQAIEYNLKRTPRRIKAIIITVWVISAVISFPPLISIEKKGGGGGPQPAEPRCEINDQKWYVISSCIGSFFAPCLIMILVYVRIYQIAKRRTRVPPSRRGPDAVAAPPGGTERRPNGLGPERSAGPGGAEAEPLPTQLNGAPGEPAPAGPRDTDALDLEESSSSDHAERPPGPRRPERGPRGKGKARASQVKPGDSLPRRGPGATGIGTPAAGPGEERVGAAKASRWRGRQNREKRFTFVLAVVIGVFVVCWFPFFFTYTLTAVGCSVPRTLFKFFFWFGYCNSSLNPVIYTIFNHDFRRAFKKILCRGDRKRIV
READOUT_NAME: pKi
In plain terms, pKi is the concentration in mol/L turned into minus its base-10 logarithm.

# input compound: C/C=C1/CN2CC[C@]34C(=C(C(=O)OC)[C@H]1C[C@H]23)Nc1ccc(I)cc14 ; wanted: its pKi 6.14

* * *

- TARGET_UNDER_TEST: Kappa-type opioid receptor (Homo sapiens, UniProt P41145)
- PROCEDURE_TEXT: Displacement of [3H]U69593 from kappa opioid receptor (unknown origin) expressed in human U2OS cell membrane by competitive radioligand binding assay
- Assay type: cell membranes
READOUT_NAME: Ki

# input molecule: C/C=C1/CN2CC[C@]34C(=C(C(=O)OC)[C@H]1C[C@H]23)Nc1ccc(I)cc14 ; wanted: its Ki 0.087 nM

* * *

What pKi was measured for each of the following?
- TARGET_UNDER_TEST: 5-hydroxytryptamine receptor 7 (Homo sapiens)
In plain terms, pKi is the concentration in mol/L turned into minus its base-10 logarithm.

Could you share what pKi was measured for C/C=C1/CN2CC[C@]34C(=C(C(=O)OC)[C@H]1C[C@H]23)Nc1ccc(I)cc14 , tested on 5-hydroxytryptamine receptor 7 (Homo sapiens)? 5.86

Entry to check: C/C=C1/CN2CC[C@]34C(=C(C(=O)OC)[C@H]1C[C@H]23)Nc1ccccc14 5.85

Entry to check: C/C=C1/CN2CC[C@]34C(=C(C(=O)OC)[C@H]1C[C@H]23)Nc1ccc(Br)cc14 5.82

* * *

- TARGET_UNDER_TEST: Alpha-2B adrenergic receptor (Homo sapiens, UniProt P18089)
- Sequence (P18089 whole entry): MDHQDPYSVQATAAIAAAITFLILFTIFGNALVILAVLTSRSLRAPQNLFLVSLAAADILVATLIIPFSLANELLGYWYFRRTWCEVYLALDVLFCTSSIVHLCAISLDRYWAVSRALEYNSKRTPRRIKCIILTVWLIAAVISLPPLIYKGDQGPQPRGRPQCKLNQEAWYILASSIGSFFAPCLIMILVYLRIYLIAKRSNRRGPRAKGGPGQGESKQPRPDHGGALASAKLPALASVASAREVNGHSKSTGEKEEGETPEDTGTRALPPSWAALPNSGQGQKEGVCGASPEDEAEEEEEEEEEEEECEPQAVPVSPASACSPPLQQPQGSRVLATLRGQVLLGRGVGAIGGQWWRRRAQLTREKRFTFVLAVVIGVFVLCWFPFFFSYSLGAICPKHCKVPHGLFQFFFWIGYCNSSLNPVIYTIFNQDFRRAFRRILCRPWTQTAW
What pKi was measured for each of the following?
In plain terms, pKi is the concentration in mol/L turned into minus its base-10 logarithm.

# input molecule: C/C=C1/CN2CC[C@]34C(=C(C(=O)OC)[C@H]1C[C@H]23)Nc1ccccc14 ; wanted: its pKi 5.92

Entry to check: C/C=C1/CN2CC[C@]34C(=C(C(=O)OC)[C@H]1C[C@H]23)Nc1ccc(Br)cc14 5.90
